// data source = patent US8168651B2

- Test system: Jurkat
- assayNotes: Cell proliferation modulatory activity, Jurkat
- Format: cell-based
- conditionParameters: Homo sapiens
# IC50 annotations
Use µM as the unit, but write only the number.

1) O=C(O)c1ccc2c(c1)nc(Nc1ccccc1)c1nc(NCCCO)ncc12	7.9

(Q) Requested read-out: IC50. Entry: O=C(O)c1ccc2c(c1)nc(NC1CC1)c1nc(NCCN3CCOCC3)ncc12
(A) 21

(Q) Requested read-out: IC50. Entry: Cc1ccccc1Nc1ncc2c(n1)c(NC1CC1)nc1cc(C(=O)O)ccc12
(A) 18.6

(Q) Requested read-out: IC50. Entry: CC(C)OCCNc1ncc2c(n1)c(NC1CC1)nc1cc(C(=O)O)ccc12
(A) 7.37

(Q) Requested read-out: IC50. Entry: C#Cc1cccc(Nc2nc3cc(C(N)=O)ccc3c3cncnc23)c1
(A) 31.5
